The molecules listed here are annotated with their concentration at 6 h.
assay: Absorption and distribution: concentration in blood and organs after oral administration, bioassay by cup method; assay type: in vivo; conditions: rat; rats, fasted, 10 mg/kg oral, serum, 6 hr after administration; Mean ± S.D. (n=5); read-out: Concentration in organs: Serum
Structures can show the parent of a compound that is named as a salt.

**Query** // returns reported concentration at 6 h for input CCNCC1CCN(c2c(F)cc3c(=O)c(C(=O)O)cn(C4CC4)c3c2F)C1 (centres unmarked) [Example 2, hydrochloride]
**Result** 260 ng/mL

**Query** # concentration at 6 h lookup, item CCNCC1CCN(c2c(F)cc3c(=O)c(C(=O)O)cn(C4CC4)c3c2Cl)C1 (centres unmarked)
**Result** 100 ng/mL

###

tested on: Acinetobacter anitratus IID 876; experiment: In vitro antibacterial activity, MIC (standard strain); assay type: cell-based; settings: Acinetobacter calcoaceticus, IID876, Acinetobacter anitratus IID 876; 10^6 cells/ml; standard strain; read-out: MIC
Counter-ions that a name gives are not always drawn.
# maps each entry to its MIC
The reply should be a number in µg/mL, with the unit left off.

compound	property_label	readout_unit	quantitative_readout
CNCC1CCN(c2cc3c(cc2F)c(=O)c(C(=O)O)cn3C2CC2)C1 (stereo not shown) [Example 9, hydrochloride]	MIC	µg/mL	0.78

**Query** Test system Acinetobacter anitratus IID 876; read-out MIC; what value for CCNCC1CCN(c2cc3c(cc2F)c(=O)c(C(=O)O)cn3C2CC2)C1.Cl (stereo not shown) [Example 7] ?
**Result** 0.78

**Query** API: value(readout= MIC, system= Acinetobacter anitratus IID 876, query= NCC1CCN(c2c(F)cc3c(=O)c(C(=O)O)cn(C4CC4)c3c2Br)C1 (stereo not shown) [Example 15] )
**Result** 0.05

**Query** # value lookup — system Acinetobacter anitratus IID 876, readout MIC, item CNCC1CCN(c2c(F)cc3c(=O)c(C(=O)O)cn(C4CC4)c3c2Cl)C1 (stereo not shown) [Example 12, hydrochloride]
**Result** 0.05

**Query** Fill in the recorded MIC for this compound, with Acinetobacter anitratus IID 876 as test system: NCC1CCN(c2c(F)cc3c(=O)c(C(=O)O)cn(C4CC4)c3c2Cl)C1 (stereo not shown) [Example 14, hydrochloride]
**Result** 0.05

**Query** Checklist item: MIC tested on Acinetobacter anitratus IID 876, entry CCCNCC1CCN(c2c(F)cc3c(=O)c(C(=O)O)cn(C4CC4)c3c2F)C1 (stereo not shown) [Example 10, hydrochloride] , value?
**Result** 0.05

**Query** Form field: MIC recorded for CN(C)CC1CCN(c2c(F)cc3c(=O)c(C(=O)O)cn(C4CC4)c3c2F)C1 (stereo not shown) [Example 21] with Acinetobacter anitratus IID 876 (enter value)
**Result** 0.05

###

test system: C. ramosum; experiment: In vitro antibacterial activity, MIC (standard strain); type: cell-based; settings: Thomasclavelia ramosa; C. ramosum; 10^6 cells/ml; standard strain; read-out: MIC
Structures can show the parent of a compound that is named as a salt.
Mark 1 for MIC under 0.8 µg/mL, -1 if at or over.

compound	label
NCC1CCN(c2c(F)cc3c(=O)c(C(=O)O)cn(C4CC4)c3c2Br)C1 (centres unmarked) [Example 15]	1

**Query** I wonder whether CCNCC1CCN(c2cc3c(cc2F)c(=O)c(C(=O)O)cn3C2CC2)C1.Cl (centres unmarked) [Example 7] has MIC below 0.8 µg/mL. Can you tell?
**Result** -1

**Query** API: query returns whether the compound falls strictly under 0.8 µg/mL in MIC. Query: CN(C)CC1CCN(c2c(F)cc3c(=O)c(C(=O)O)cn(C4CC4)c3c2Cl)C1 (centres unmarked) [Example 20]
**Result** 1

**Query** Criterion: MIC strictly below 0.8 µg/mL. Is it met by NCC1CCN(c2c(F)cc3c(=O)c(C(=O)O)cn(C4CC4)c3c2Cl)C1 (centres unmarked) [Example 14, hydrochloride] ?
**Result** 1

**Query** Check if MIC falls below 0.8 µg/mL for CCNCC1CCN(c2c(F)cc3c(=O)c(C(=O)O)cn(CC)c3c2F)C1 (centres unmarked) [Ref.1, reference compound] .
**Result** -1

**Query** In plain terms, does CCCNCC1CCN(c2c(F)cc3c(=O)c(C(=O)O)cn(C4CC4)c3c2F)C1 (centres unmarked) [Example 10, hydrochloride] come in under 0.8 µg/mL for MIC?
**Result** -1

###

Overview of reported MIC across a group of molecules:
system: Acinetobacter anitratus IID 876; test: In vitro antibacterial activity, MIC (standard strain); type: cell-based; conditions: Acinetobacter calcoaceticus, IID876, Acinetobacter anitratus IID 876; 10^6 cells/ml; standard strain; read-out: MIC
Counter-ions that a name gives are not always drawn.
Report the value in µg/mL with no unit label.

molecule	property_label	readout_unit	quantitative_readout
CCNCC1CCN(c2c(F)cc3c(=O)c(C(=O)O)cn(C4CC4)c3c2Cl)C1 (stereo not shown) [Example 13]	MIC	µg/mL	0.05
CCNCC1CCN(c2c(F)cc3c(=O)c(C(=O)O)cn(CC)c3c2F)C1 (stereo not shown) [Ref.1, reference compound]	MIC	µg/mL	0.78
CCNCC1CCN(c2c(F)cc3c(=O)c(C(=O)O)cn(C4CC4)c3c2F)C1 (stereo not shown) [Example 2, hydrochloride]	MIC	µg/mL	0.05

Please find the next molecule below.
**Query** Identify the measured MIC of CCn1cc(C(=O)O)c(=O)c2cc(F)c(N3CCNCC3)cc21 [NFLX, Norfloxacin, reference compound] for Acinetobacter anitratus IID 876.
**Result** 3.13

###

test system: S. aureus Smith; experiment: In vivo antibacterial activity against systemic infection in mice; parameters: species or system mice (ICR-S); details: Staphylococcus aureus, po, mice (ICR-S), an hour after intraperitoneal infection, challenge dose 6.0 x 10^5 cfu/mouse, read-out: ED50 S. aureus Smith
Where a name gives a salt, the structure may show the parent alone.
Note to self: ED50 under 0.9 mg/kg means true, ties and anything higher get false.

Record excerpt, results attached:
compound	label
CCNCC1CCN(c2c(F)cc3c(=O)c(C(=O)O)cn(C4CC4)c3c2Cl)C1 (stereo not drawn) [Example 13]	true
CNCC1CCN(c2c(F)cc3c(=O)c(C(=O)O)cn(C4CC4)c3c2F)C1 (stereo not drawn) [Example 8, hydrochloride]	false
CCNCC1CCN(c2c(F)cc3c(=O)c(C(=O)O)cn(CC)c3c2F)C1 (stereo not drawn) [Ref.1, reference compound]	false
CNCC1CCN(c2c(F)cc3c(=O)c(C(=O)O)cn(C4CC4)c3c2Cl)C1 (stereo not drawn) [Example 12, hydrochloride]	true

As a next step, examine the compound that follows.
**Query** Determine if NCC1CCN(c2c(F)cc3c(=O)c(C(=O)O)cn(C4CC4)c3c2F)C1 (stereo not drawn) [Example 4] shows ED50 strictly lower than 0.9 mg/kg.
**Result** false

###

Catalogue of compounds with associated concentration at 1 h
test: Absorption and distribution: concentration in blood and organs after oral administration, bioassay by cup method; format: in vivo; settings: rat; rats, fasted, 10 mg/kg oral, liver, 1 hr after administration; Mean ± S.D. (n=5); read-out: Concentration in organs: Liver
Counter-ions that a name gives are not always drawn.
Just the number in ng/g, nothing appended.

compound	concentration at 1 h [ng/g]
CCNCC1CCN(c2c(F)cc3c(=O)c(C(=O)O)cn(C4CC4)c3c2F)C1 (centres unmarked) [Example 2, hydrochloride]	6240

**Query** Would you mind telling me what concentration at 1 h value was observed for CCNCC1CCN(c2c(F)cc3c(=O)c(C(=O)O)cn(C4CC4)c3c2Cl)C1 (centres unmarked) ?
**Result** 5710

###

Here the recorded concentration at 8 h is given for each entry.
assay: Absorption and distribution: concentration in blood and organs after oral administration, bioassay by cup method; format: in vivo; conditions: rat; rats, fasted, 10 mg/kg oral, kidney, 8 hr after administration; Mean ± S.D. (n=5); read-out: Concentration in organs: Kidney
Where a name gives a salt, the structure may show the parent alone.
I only need the number, in ng/g, no unit after it.

compound	property_label	quantitative_readout
CCNCC1CCN(c2c(F)cc3c(=O)c(C(=O)O)cn(C4CC4)c3c2F)C1 (centres unmarked) [Example 2, hydrochloride]	concentration at 8 h	980

Turning now to a further record.
**Query** Please report the recorded concentration at 8 h for CCNCC1CCN(c2c(F)cc3c(=O)c(C(=O)O)cn(C4CC4)c3c2Cl)C1 (centres unmarked) [Example 13] .
**Result** 890

###

test: Absorption and distribution: concentration in blood and organs after oral administration, bioassay by cup method; assay type: in vivo; conditions: rat; rats, fasted, 10 mg/kg oral, serum, 4 hr after administration; Mean ± S.D. (n=5); read-out: Concentration in organs: Serum
Where a name gives a salt, the structure may show the parent alone.
Catalogue of compounds with associated concentration at 4 h
Unit ng/mL implied. Number only.

compound	concentration at 4 h, ng/mL
CCNCC1CCN(c2c(F)cc3c(=O)c(C(=O)O)cn(C4CC4)c3c2F)C1 (centres unmarked) [Example 2, hydrochloride]	420

Kindly consider the entry below.
**Query** Look up concentration at 4 h: CCNCC1CCN(c2c(F)cc3c(=O)c(C(=O)O)cn(C4CC4)c3c2Cl)C1 (centres unmarked)
**Result** 230
